Origin of measurements: ChEMBL document CHEMBL5375962

Assay: Cmax in dog at 1 mg/kg, iv
Assay type: ADME, organism-based, Canis lupus familiaris
Set-up: dose 1 mg/kg, route iv
Settings: in vivo
Each entry below carries its recorded Cmax.
Measured attribute: Cmax

• C[C@H]1CCN1c1nc(-c2cnn(CC(=O)N3CCNCC3)c2)cc(C(F)(F)F)n1 [LY-3522348] = 3000 nM
• OC[C@H]1CCN1c1nc(-c2cnn(C3CNC3)c2)cc(C(F)(F)F)n1 = 2730 nM
• OC[C@H]1CCN1c1nc(-c2cnn(C3CCNCC3)c2)cc(C(F)(F)F)n1 = 2940 nM
• C[C@H]1CCN1c1nc(-c2cnn(CC(=O)N3C[C@H](O)[C@@H](O)C3)c2)cc(C(F)(F)F)c1C#N = 2650 nM
• C[C@H]1CCN1c1nc(-c2cnn(CC(=O)NCCO)c2)cc(C(F)(F)F)c1C#N = 2340 nM

###

Assay: Unbound fraction in human plasma at 1 uM
Format: ADME, cell-free
Measured attribute: fraction unbound at 1 µM

* C[C@H]1CCN1c1nc(-c2cnn(CC(=O)N3CCNCC3)c2)cc(C(F)(F)F)n1 | 0.15

###

Each entry below carries its recorded IC50.
Experiment: Inhibition of mouse KHK-A
Measured attribute: IC50

- C[C@H]1CCN1c1nc(-c2cnn(CCN(C)C)c2)cc(C(F)(F)F)c1C#N: 4.5 nM
- C[C@H]1CCN1c1nc(-c2cnn(C3CNC3)c2)cc(C(F)(F)F)n1: 13 nM
- C[C@H]1CCN1c1nc(-c2cnn(C3CCNCC3)c2)cc(C(F)(F)F)c1C#N: 2 nM
- C[C@H]1CCN1c1nc(-c2cnn(CCO)c2)cc(C(F)(F)F)c1C#N: 4 nM
- C[C@H]1CCN1c1nc(-c2cnn(C3CCOCC3)c2)cc(C(F)(F)F)c1C#N: 40 nM
- OC[C@H]1CCN1c1nc(-c2cnn(C3CCNCC3)c2)cc(C(F)(F)F)n1: 56 nM
- C[C@H]1CCN1c1nc(-c2cnn(CC(=O)NCCO)c2)cc(C(F)(F)F)c1C#N: 12 nM
- C[C@H]1CCN1c1nc(-c2cnn(CC(=O)N3C[C@@H](O)[C@H](O)C3)c2)cc(C(F)(F)F)c1C#N: 7 nM
- C[C@H]1CCN1c1nc(-c2cnn(CC(=O)N3CCNCC3)c2)cc(C(F)(F)F)n1: 14 nM
- CC(=O)N1CCC(n2cc(-c3cc(C(F)(F)F)c(C#N)c(N4CC[C@@H]4C)n3)cn2)CC1: 19 nM
- C[C@H]1CCN1c1nc(-c2cnn(C3CCNCC3)c2)cc(C(F)(F)F)n1: 52 nM
- C[C@H]1CCN1c1nc(-c2cnn(CC(=O)N3C[C@H](O)[C@@H](O)C3)c2)cc(C(F)(F)F)c1C#N: 5 nM
- C[C@H]1CCN1c1nc(-c2cnn(C3CNC3)c2)cc(C(F)(F)F)c1C#N: 8 nM
- C[C@H]1CCN1c1nc(-c2cnn(C3CCN(C)CC3)c2)cc(C(F)(F)F)c1C#N: 4 nM
- OC[C@H]1CCN1c1nc(-c2cnn(C3CNC3)c2)cc(C(F)(F)F)n1: 108 nM
- C[C@H]1CCN1c1nc(-c2cnn(CC(=O)N3CCN(C)CC3)c2)cc(C(F)(F)F)c1C#N: 4 nM
- C[C@H]1CCN1c1nc(N2C[C@@H]3[C@@H](CC(=O)O)[C@@H]3C2)cc(C(F)(F)F)n1: 30 nM
- C[C@H]1CCN1c1nc(-c2cn[nH]c2)cc(C(F)(F)F)c1C#N: 6 nM
- C[C@H]1CCN1c1nc(-c2cnn(CC(=O)N(CCO)CCO)c2)cc(C(F)(F)F)c1C#N: 16 nM
- C[C@H]1CCN1c1nc(-c2cnn(C3CCN(C(=O)CN)CC3)c2)cc(C(F)(F)F)c1C#N: 3 nM
